system: Klebsiella pneumoniae; experiment: Inhibition of DHPS in Klebsiella pneumoniae assessed as antibacterial activity by measuring inhibition zone at 5 mg/mL incubated for 24 hrs by disk diffusion method
The source made the active and inactive calls. The rule behind the calls is not given here.
quantity.measured: inhibition zone (IZ)

Would you please look over these solved cases?
# input Item CCN/C(S[C@@H]1O[C@H](COC(C)=O)[C@@H](OC(C)=O)[C@H](OC(C)=O)[C@H]1OC(C)=O)=C(/C#N)C(=O)Nc1ccc(S(=O)(=O)Nc2onc(C)c2C)cc1 : provide inhibition zone (IZ)
# output 18.8 mm

# input Please list inhibition zone (IZ) recorded for the compound CN/C(S[C@@H]1O[C@H](COC(C)=O)[C@@H](OC(C)=O)[C@H](OC(C)=O)[C@H]1OC(C)=O)=C(/C#N)C(=O)Nc1ccc(S(=O)(=O)Nc2onc(C)c2C)cc1
# output 22.1 mm

# input Please look at this compound and report its inhibition zone (IZ): C=CCN/C(SC)=C(/C#N)C(=O)Nc1ccc(S(=O)(=O)Nc2onc(C)c2C)cc1
# output inactive

# input Name the recorded inhibition zone (IZ) of the compound listed here: Cc1noc(NS(=O)(=O)c2ccc(NC(=O)c3c(N)n[nH]c3Nc3ccccc3)cc2)c1C
# output inactive

# input Name the recorded inhibition zone (IZ) of the item CCN/C(SCC)=C(/C#N)C(=O)Nc1ccc(S(=O)(=O)Nc2onc(C)c2C)cc1 in your answer.
# output 23.2 mm

---
# input Identify the reported inhibition zone (IZ) for the following entry. Cc1noc(NS(=O)(=O)c2ccc(NC(=O)/C(C#N)=C(/S)NC34CC5CC(CC(C5)C3)C4)cc2)c1C
# output 16.2 mm

# input Kindly indicate its recorded inhibition zone (IZ). Item: C=CCN/C(SCC)=C(/C#N)C(=O)Nc1ccc(S(=O)(=O)Nc2onc(C)c2C)cc1
# output 24.7 mm

# input Indicate its recorded inhibition zone (IZ); the compound in question is CCN/C(S[C@@H]1O[C@H](COC(C)=O)[C@H](OC(C)=O)[C@H](OC(C)=O)[C@H]1OC(C)=O)=C(/C#N)C(=O)Nc1ccc(S(=O)(=O)Nc2onc(C)c2C)cc1
# output 19.8 mm
